Record form. Attribute: IC50. Fill in for each entry.
Answer format: numeric, nM implied, no suffix.

Please tell me: IC50 of O=C(Nc1ccc(Br)cc1OC(F)(F)F)c1cc[nH]n1 [Example 15] , system purified human 15-lipoxygenase (Homo sapiens)?
140

Please tell me: IC50 of Cc1ccc(NC(=O)c2cc[nH]n2)c(C)c1 [Example 14] , system purified human 15-lipoxygenase (Homo sapiens)?
840

Please tell me: IC50 of O=C(Nc1ccc(OC(F)(F)F)cc1Br)c1cc[nH]n1 [Example 2] , system purified human 15-lipoxygenase (Homo sapiens)?
160

Please tell me: IC50 of O=C(Nc1ccc(F)c(F)c1F)c1cc[nH]n1 [Example 7] , system purified human 15-lipoxygenase (Homo sapiens)?
1800
